Assign normalized growth to each entry below.
EXPERIMENT DESCRIPTION: chemical genetic growth profiling, strain panel (AID 1159580);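 also: tested at 20 µM; growth read once vehicle control cultures reached saturation at 30 °C; 1 = growth at the plate median or of vehicle wells; lower values mean less growth of the strain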
CONDITION LABEL: S. cerevisiae deletion strains, growth OD, locus YML032C, strain rad52, hits give low values
In all, about 5,500 compounds went through this assay and about 2,000 (36%) were called active. Inconclusive results (about 18%) are left out. Some of the results follow.
Answers are plain numbers.

Parameters: items (list). Returns: normalized growth for each item.
1. NC(=O)CN1CCCC1=O
2. CC(C)C1COc2cc3oc(=O)ccc3cc2O1 (stereo not given)
3. C[C@]12CCC3c4ccc(OS(=O)(=O)O)cc4CCC3C1CC[C@H]2O (stereo not given in full)
4. CCCC(C)(COC(N)=O)COC(=O)NC(C)C (stereo not given)
5. O=C1C=C2C(=CCOC2O)O1 (stereo not given)
6. CCC(N)C(O)c1ccc(O)c(O)c1 (stereo not given)

1. 1.01
2. 0.639
3. 0.989
4. 0.97
5. 0.92
6. 0.972

Here are 4 compounds. What values of normalized growth were reported for them?
1. C[C@]12CCC3c4ccc(O)cc4CCC3C1C[C@@H](O)[C@@H]2O (stereo not given in full)
2. CNC(=O)Oc1cccc2c1OC(C)(C)O2
3. C[C@]12CCC3c4ccc(O)cc4CCC3C1CC[C@@H]2O (stereo not given in full)
4. C=C(C)[C@H]1COc2cc3oc(=O)ccc3cc2O1

[0.967, 0.992, 0.977, 0.555]

For the 5 compounds below, give their normalized growth values.
1. CCC(=O)c1c(O)cc(O)cc1O
2. CCN1C[C@]2(C)CC[C@H](OC)[C@]34C2[C@H](O)[C@]2(OCO[C@@]25C[C@H](OC)[C@H]2C[C@]3(O)C5[C@H]2O)C14
3. CC[n+]1c(-c2ccccc2)c2cc(N)ccc2c2ccc(N)cc21
4. CCCCCCC(C)OC(=O)COc1ccc(Cl)cc1Cl (stereo not given)
5. CNC(C)C(O)c1ccccc1 (stereo not given)

0.981
1
0.425
1.01
1.03

* * *

EXPERIMENT DESCRIPTION: chemical genetic growth profiling, strain panel (AID 1159580)
CONDITION LABEL: S. cerevisiae deletion strains, growth OD, locus YFL009W, strain cdc4, hits give low values
Hit rate of the full screen: of about 5,500 compounds, about 2,000 (36%) were called active. Roughly 18% stayed inconclusive and do not appear here. The list shows a part of the results.
MEASURED ENDPOINT: normalized growth

Observe how each entry below is paired with its result.
| COMPOUND | MEASURED ENDPOINT | RESULT |
| --- | --- | --- |
| O=C(NNc1ccc(F)cc1F)c1sccc1Cl | normalized growth | 0.975 (inactive) |
| Oc1c(Br)cc(Br)cc1C=Nc1ccc(Sc2ccccc2)nc1Sc1ccccc1 | normalized growth | 0.927 (inactive) |
| O=C1C(Cl)=C(Oc2cc(Cl)c(Cl)cc2Cl)C(=O)c2ccccc21 | normalized growth | 0.922 (inactive) |
| OC(COc1ccc(F)cc1)(c1ccccc1)c1ccccc1 | normalized growth | 0.954 (inactive) |
| Cc1c(C)c(C)c(C(O)c2ccccc2)c(C)c1C (stereo unspecified) | normalized growth | 0.994 (inactive) |

# next compound below
Hello, please tell me recorded normalized growth for this one: `O=C1Nc2ccccc2/C1=C\c1c(Cl)cccc1Cl`
0.96 (inactive)

* * *

EXPERIMENT DESCRIPTION: chemical genetic growth profiling, strain panel (AID 1159580);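 also: tested at 20 µM; growth read once vehicle control cultures reached saturation at 30 °C; 1 = growth at the plate median or of vehicle wells; lower values mean less growth of the strain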
CONDITION LABEL: S. cerevisiae deletion strains, growth OD, locus YLR342W, strain FKS1 (second series), hits give low values
Among all 5,500 compounds or so, about 2,000 (36%) were called active. Inconclusive results (about 18%) are left out. The list shows a part of the results.
MEASURED ENDPOINT: normalized growth
Numbers only.

Consider the following illustrative entries.
| MOLECULE | normalized growth |
| --- | --- |
| COC(=O)C1OC(=O)C2OC23C1(C)CCC1C2(C)C(OC(C)=O)CC(OC(C)=O)C(C)(C)C2CC(=O)C13C (stereo unspecified) | 0.985 |
| NC(=O)CN1CCCC1=O | 1.02 |
| C[C@@H]1O[C@@H](OC[C@H]2OC(Oc3c(-c4ccc(O)c(O)c4)oc4cc(O)cc(O)c4c3=O)[C@H](O)[C@@H](O)[C@@H]2O)[C@H](O)[C@H](O)[C@H]1O (stereo partly specified) | 1 |
| CC(=O)[C@@]1(O)CCC2C3C[C@H](C)C4=CC(=O)C=CC4(C)[C@@]3(F)[C@@H](O)C[C@@]21C (stereo partly specified) | 0.992 |
| COc1ccc(-c2oc3cc(O[C@H]4O[C@H](CO)[C@@H](O)[C@H](O)[C@H]4O)c(OC)c(O)c3c(=O)c2OC)cc1O | 0.983 |

API: the following record is the query input.
Provide normalized growth value for the following molecule: `COc1ccc(-c2cc(=O)c3c(O)cc(O[C@@H]4O[C@H](CO[C@H]5O[C@H](C)[C@@H](O)[C@H](O)[C@@H]5O)[C@@H](O)[C@H](O)[C@H]4O)cc3o2)cc1O`
1.01

* * *

EXPERIMENT DESCRIPTION: chemical genetic growth profiling, strain panel (AID 1159580);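 also: tested at 20 µM; growth read once vehicle control cultures reached saturation at 30 °C; 1 = growth at the plate median or of vehicle wells; lower values mean less growth of the strain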
CONDITION LABEL: S. cerevisiae deletion strains, growth OD, locus YIL066C, strain RNR3, hits give low values
The whole screen tested about 5,500 compounds, of which about 2,000 (36%) were called active. Roughly 18% stayed inconclusive and do not appear here. This is one part of the list.
Binary label based on normalized growth with cut-off 1: below gives Fulfilled, not below gives Not fulfilled.

As a guide, the following entries are already answered.
| COMPOUND | CATEGORY LABEL |
| --- | --- |
| CC(C)c1c(O)ccc2c1CCC1[C@@](C)(C=O)CCC[C@]21C (stereo not given in full) | Fulfilled |
| CC1CC[C@@]2(OC1)O[C@H]1CC3C4CC[C@@H]5C[C@@H](O)CC[C@]5(C)C4CC[C@]3(C)[C@H]1[C@@H]2C (stereo not given in full) | Not fulfilled |
| O=C(OC1Cc2c(O)cc(O)cc2OC1c1cc(=O)c(O)c2c(O)c(O)cc(C3Oc4cc(O)cc(O)c4CC3O)c2c1)c1cc(O)c(O)c(O)c1 (stereo not given) | Fulfilled |
| O=c1c(O)c(-c2ccc(O)cc2O)oc2cc(O)cc(O)c12 | Fulfilled |
| CC(C)c1c(O)ccc2c1CCC1[C@@](C)(CO)CCC[C@]21C (stereo not given in full) | Fulfilled |
| CCC/C=C1\OC(=O)C2=C1CCC=C2 | Fulfilled |

Here is the next item to consider.
Item Cc1ccccc1OCC(O)CO (stereo not given) : normalized growth beneath 1, strictly?
Not fulfilled

* * *

EXPERIMENT DESCRIPTION: chemical genetic growth profiling, strain panel (AID 1159580);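 also: tested at 20 µM; growth read once vehicle control cultures reached saturation at 30 °C; 1 = growth at the plate median or of vehicle wells; lower values mean less growth of the strain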
CONDITION LABEL: S. cerevisiae deletion strains, growth OD, locus YOR144C, strain elg1
The campaign covered roughly 5,500 compounds. About 2,000 (36%) were called active. Not shown: some 18% with an inconclusive outcome. Cut-off read from the data, not from the text of the source: active = normalized growth mostly below about 0.91 (no sharp cut-off); inconclusive = no clear call, values can overlap the other calls; inactive = mostly above about 0.92. Some of the results follow.
In this exercise, the only acceptable responses are true (1) for active, false (0) for inactive

Example entries and their recorded answers appear below.
| MOLECULE | CATEGORY LABEL |
| --- | --- |
| CC(C)c1c(O)c(-c2cc3c(c(C(C)C)c2O)CCC2C(C)(C)CCC[C@]32C)cc2c1CCC1C(C)(C)CCC[C@]21C (stereo not given in full) | false (0) |
| CCOC(=O)c1c(C)cc(OC)cc1O | false (0) |
| CC(=O)OC1CN2CCC1CC2 (stereo not given) | false (0) |
| CC(C)N(CCC(C(N)=O)(c1ccccc1)c1ccccn1)C(C)C (stereo not given) | false (0) |
| COC(=O)C[C@H]1C(C)(C)C2(Cl)O[C@@]34CC2C(=O)[C@]1(C)C3CC[C@]1(C)C4=CC(=O)O[C@H]1c1ccoc1 (stereo not given in full) | false (0) |

// outcome(item) with item = CC1O[C@@H](Oc2c(-c3ccc(O)c(O)c3)oc3cc(O)cc(O)c3c2=O)[C@H](O)[C@H](O)[C@H]1O (stereo not given in full)
false (0)

Hello, I am checking results. What call was entered for `CCOC(=O)c1c(C)cc(O)cc1O` ?
true (1)

Name the outcome recorded for `COc1ccc(-c2oc3cc(O[C@H]4O[C@H](CO)[C@@H](O)[C@H](O)[C@H]4O)c(OC)c(O)c3c(=O)c2OC)cc1O` in the assay.
false (0)

Test call for this molecule, please: CC(C)c1c(O)ccc2c1CCC1C(C)(C)CCC[C@]21C (stereo not given in full)
true (1)

Give the logged outcome of this assay for the following molecule: CC(=O)[C@@]1(O)CCC2C3C[C@H](C)C4=CC(=O)C=CC4(C)[C@@]3(F)[C@@H](O)C[C@@]21C (stereo not given in full)
false (0)

Test call, this molecule: `CC/C(=C(/CC)c1ccc(O)cc1)c1ccc(O)cc1`
false (0)

For `CCC(=O)c1c(O)cc(O)cc1O` , what call appears in the results of this test?
false (0)

Assay outcome for `Cc1cc(OC(=O)c2c(C)cc(O)cc2O)cc(O)c1C(=O)O` : what was it?
false (0)

What did the test return for `Cc1cc(OC(=O)c2c(C)cc(OC(=O)c3c(C)cc(O)cc3O)cc2O)cc(O)c1C(=O)O` ?
false (0)

Per the records of this test, what outcome belongs to CC1CC[C@@]2(OC1)O[C@H]1CC3C4CC[C@@H]5C[C@@H](O)CC[C@]5(C)C4CC[C@]3(C)[C@H]1[C@@H]2C (stereo not given in full) ?
false (0)
